Sourced from FireProtDB (doi:10.1021/bi00146a008)

B1: Lysozyme C, P61626 (parent)
chain: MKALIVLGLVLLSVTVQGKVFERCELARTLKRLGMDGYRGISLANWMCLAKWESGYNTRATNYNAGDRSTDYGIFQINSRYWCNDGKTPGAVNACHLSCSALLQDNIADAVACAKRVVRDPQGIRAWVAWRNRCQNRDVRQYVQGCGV

- Variants of: B1
- EXPERIMENTAL PARAMETERS: Homo sapiens; pH 2.8; 68.8 °C; Thermal; DSC; glycine-HCl 50 mM; reversible: yes; structure 1LZ1; whole UniProt chain shown
Hi, to clarify the labels: YES covers ddG of mutation (higher = less stable) from 0.4 kcal/mol upward, NO covers anything below 0.4 kcal/mol.

- SEQUENCE CHANGE: "A65P"
  DISCRETE LABEL: "NO"
- SEQUENCE CHANGE: "P89G"
  DISCRETE LABEL: "YES"
- SEQUENCE CHANGE: "P89G P121G"
  DISCRETE LABEL: "YES"

Query: Exam item: decide whether the reported ddG of mutation (higher = less stable) for V128P is at least 0.4 kcal/mol.
Result: NO

Query: Identify whether the reported ddG of mutation (higher = less stable) of the following variant is 0.4 kcal/mol or greater: P121G
Result: NO
